Values compiled from patent US4464385A.

# System: cataracts in rats
# experiment: Prevention or retardation of cataracts in galactose-fed rats
# Format: in vivo, rat
# conditions-used: Study Day 12; 30% galactose diet; A,C,E 0.0025%, B,D 0.01%
# Procedure: The compounds to be tested were: Test compound/diet mixtures were formulated as follows: […] Similarly, the 0.01% level was designed to provide a drug concentration of 20 mg per kilogram per day. […] Sufficient amounts of test compound/diet mixture were maintained in the food hoppers to allow the animals to eat ad libitum. All aliquots of test compound/diet mixture added to the food hoopers were weighed and the weights, as well as day of addition, recorded. […]
measured-quantity: Number of Eyes Observed, - (Normal)
Answer as a quantity: numeral, then unit.

Respond only with Number of Eyes Observed, - (Normal) recorded for O=C1NC(=O)C2(CCOc3ccc(F)cc32)N1 (stereo not shown) 23 eyes

Report Number of Eyes Observed, - (Normal), nothing else, for this molecule: C[S+]([O-])c1ccc2c(c1)C1(CCO2)NC(=O)NC1=O (stereo not shown) 0 eyes

Fill in reported Number of Eyes Observed, - (Normal) for this entry: CSc1ccc2c(c1)C1(CCO2)NC(=O)NC1=O (stereo not shown) [B] 7 eyes

Item CSc1ccc2c(c1)C1(CCO2)NC(=O)NC1=O (stereo not shown) [A] : provide Number of Eyes Observed, - (Normal) 0 eyes
